- System: PC-14
- assay_overview: relative viability (nuclei count vs DMSO), 5 days (fraction); higher = more cells survive
- applied_conditions: first compound 0.003162 µM
quantity_name: relative viability
Numbers only.

Solved cases (4 shown):
Cc1cn(-c2cc(NC(=O)c3ccc(C)c(Nc4nccc(-c5cccnc5)n4)c3)cc(C(F)(F)F)c2)cn1 [Nilotinib] + Cc1nc(Nc2ncc(C(=O)Nc3c(C)cccc3Cl)s2)cc(N2CCN(CCO)CC2)n1 [Dasatinib] (partner 0.075 µM); 0.254
Cc1cn(-c2cc(NC(=O)c3ccc(C)c(Nc4nccc(-c5cccnc5)n4)c3)cc(C(F)(F)F)c2)cn1 [Nilotinib] + O=C(CCCCCCC(=O)Nc1ccccc1)NO [Vorinostat] (partner 1 µM); 0.378
Cc1cn(-c2cc(NC(=O)c3ccc(C)c(Nc4nccc(-c5cccnc5)n4)c3)cc(C(F)(F)F)c2)cn1 [Nilotinib] + CS(=O)(=O)CCNCc1ccc(-c2ccc3ncnc(Nc4ccc(OCc5cccc(F)c5)c(Cl)c4)c3c2)o1 [Lapatinib] (partner 2 µM); 0.422
Cc1cn(-c2cc(NC(=O)c3ccc(C)c(Nc4nccc(-c5cccnc5)n4)c3)cc(C(F)(F)F)c2)cn1 [Nilotinib] + C[C@]1(O)C[C@@H](c2nc(-c3ccc4ccc(-c5ccccc5)nc4c3)c3c(N)nccn32)C1 [Linsitinib] (partner 1 µM); 1.05

List the reported relative viability of each compound below.
1. Cc1cn(-c2cc(NC(=O)c3ccc(C)c(Nc4nccc(-c5cccnc5)n4)c3)cc(C(F)(F)F)c2)cn1 [Nilotinib] + CC(=O)c1c(C)c2cnc(Nc3ccc(N4CCNCC4)cn3)nc2n(C2CCCC2)c1=O [Palbociclib] (partner 0.5 µM)
2. Cc1cn(-c2cc(NC(=O)c3ccc(C)c(Nc4nccc(-c5cccnc5)n4)c3)cc(C(F)(F)F)c2)cn1 [Nilotinib] + N=C(N)NC(=N)NCCc1ccccc1 [Phenformin] (partner 250 µM)
3. Cc1cn(-c2cc(NC(=O)c3ccc(C)c(Nc4nccc(-c5cccnc5)n4)c3)cc(C(F)(F)F)c2)cn1 [Nilotinib] + COc1cc2c(Oc3ccc(NC(=O)C4(C(=O)Nc5ccc(F)cc5)CC4)cc3F)ccnc2cc1OCCCN1CCOCC1 [Foretinib] (partner 0.25 µM)

1: 0.741; 2: 0.538; 3: 1.11

Source listed as the supplement of paper PMC10307832.
